Please provide measured herbicidal effect rating, CYPIR for the entries that follow.
Tested on: Cyperus iria
TEST DESCRIPTION: Preemergence weed control under flooded paddy conditions, CYPIR (Rice Flatsedge); also: meaning of each grade not given here
Type: in vivo
CONDITION NOTES: Rate 0.0620 kg/ha; preemergence, flooded paddy; rated 3-4 weeks after treatment
One number for each entry.

Solved cases below.
# MOLECULE, herbicidal effect rating, CYPIR
records = [
    ("CCS(=O)(=O)NC(=O)COc1ccccc1-c1nsc2ccc(-n3c(=O)cc(C(F)(F)F)n(C)c3=O)cc12", 6.0),
    ("Cc1ccc(OCC(=O)c2ccc(Cl)cc2)c(-c2nsc3ccc(-n4c(=O)cc(C(F)(F)F)n(C)c4=O)cc23)c1", 0.0),
    ("CCOC(=O)C1CCC(OC(=O)COc2ccc(C)cc2-c2nsc3ccc(-n4c(=O)cc(C(F)(F)F)n(C)c4=O)cc23)CC1 (single isomer, unassigned; isomer a)", 2.0),
]

Can you give me herbicidal effect rating, CYPIR for all of these, one by one?
1. C=CS(=O)(=O)NC(=O)COc1ccccc1-c1nsc2ccc(-n3c(=O)cc(C(F)(F)F)n(C)c3=O)cc12
2. CCCS(=O)(=O)NC(=O)COc1ccccc1-c1nsc2ccc(-n3c(=O)cc(C(F)(F)F)n(C)c3=O)cc12

Output line:
1. 8.0
2. 2.0

* * *

Test system: Echinochloa oryzoides (Ard.) Fritsch.
TEST DESCRIPTION: Preemergence weed control under flooded paddy conditions, ECHORC (Watergrass (Calif.)); also: meaning of each grade not given here
Assay type: in vivo
CONDITION NOTES: 0.1250 kg/ha; preemergence, flooded paddy; rated three to four weeks after treatment
Please provide measured herbicidal effect rating, ECHORC for the entries that follow.
Give bare numbers.

# CHEMICAL STRING, herbicidal effect rating, ECHORC
records = [
    ("COc1ccc(C)cc1-c1nsc2ccc(-n3c(=O)cc(C)n(C)c3=O)cc12", 2.0),
    ("COc1cc(C)c(C)c(C)c1-c1nsc2ccc(-n3c(=O)cc(C(F)(F)F)n(C)c3=O)cc12", 3.5),
]

Can you give me herbicidal effect rating, ECHORC for all of these, one by one?
1. Cc1ccc(O)c(-c2noc3ccc(-n4c(=O)cc(C(F)(F)F)n(C)c4=O)c(Cl)c23)c1
2. Cc1nsc2ccc(-n3c(=O)cc(C(F)(F)F)n(C)c3=O)cc12

Output line:
[2.0, 8.0]

* * *

Please provide measured herbicidal effect rating, SAGPY for the entries that follow.
System: Sagittaria pygmaea, L.
TEST DESCRIPTION: Preemergence weed control under flooded paddy conditions, SAGPY (Arrowhead (Pygmaea)); also: meaning of each grade not given here
Type: in vivo
CONDITION NOTES: Rate 0.0620 kg/ha; preemergence, flooded paddy; rated three to four weeks after treatment
One number for each entry.

Solved cases below.
# MOLECULE, herbicidal effect rating, SAGPY
data = [
    ("CC(C)C=C(C#N)c1nsc2ccc(-n3c(=O)cc(C(F)(F)F)n(C)c3=O)cc12", 3.0),
    ("Cc1nsc2cc(F)c(-n3c(=O)cc(C(F)(F)F)n(C)c3=O)cc12", 8.0),
    ("CN(C(=O)c1nsc2ccc(-n3c(=O)cc(C(F)(F)F)n(C)c3=O)cc12)c1ccc(Cl)cc1", 5.0),
    ("C#CCOC(=O)COc1ccc(OC)cc1-c1nsc2ccc(-n3c(=O)cc(C(F)(F)F)n(C)c3=O)cc12", 5.0),
    ("CC(C#N)c1nsc2ccc(-n3c(=O)cc(C(F)(F)F)n(C)c3=O)cc12 (stereo not shown)", 9.0),
    ("Cn1c(C(F)(F)F)cc(=O)n(-c2cc3c(C(Br)Br)nsc3cc2F)c1=O", 9.0),
    ("Cn1c(C(F)(F)F)cc(=O)n(-c2ccc3snc(C(=O)NS(=O)(=O)c4cccs4)c3c2)c1=O", 6.0),
    ("Cn1c(C(F)(F)F)cc(=O)n(-c2ccc3snc(C(C#N)=Cc4ccncc4)c3c2)c1=O", 0.0),
]

Can you give me herbicidal effect rating, SAGPY for all of these, one by one?
1. C#CCC(c1nsc2ccc(-n3c(=O)cc(C(F)(F)F)n(C)c3=O)cc12)S(C)(=O)=O (stereo not shown)
2. Cc1ccc(OC(C)C(=O)NS(C)(=O)=O)c(-c2nsc3ccc(-n4c(=O)cc(C(F)(F)F)n(C)c4=O)cc23)c1 (stereo not shown)
3. Cn1c(C(F)(F)F)cc(=O)n(-c2ccc3snc(COS(=O)(=O)c4ccccc4)c3c2)c1=O

Output line:
1. 0.0
2. 0.0
3. 4.0

* * *

System: Oryza sativa, (L.) Tebonnet
TEST DESCRIPTION: Rice tolerance to post-transplant applications under flooded paddy conditions (Example 188), ORYSAT (Rice, Tebonnet)
CONDITION NOTES: Rate 0.2500 kg/ha, rated three to four weeks after treatment
PROPERTY MEASURED: herbicidal effect rating, ORYSAT (rice tolerance)
One number for each entry.

Solved cases below.
# MOLECULE, VALUE OBSERVED
records = [
    ("CCCCC(=O)c1nsc2ccc(-n3c(=O)cc(C(F)(F)F)n(C)c3=O)cc12 [Example 431]", 7.0),
    ("COC(=O)COc1ccc(C)cc1-c1noc2ccc(-n3c(=O)cc(C(F)(F)F)n(C)c3=O)c(Cl)c12 [Example 261]", 0.0),
    ("Cc1cc(O)c(-c2nsc3ccc(-n4c(=O)cc(C(F)(F)F)n(C)c4=O)cc23)cc1C [Example 11]", 1.0),
    ("COC(=O)COc1ccc(C)cc1-c1nsc2ccc(-n3c(=O)cc(C(F)(F)F)n(C)c3=O)cc12 [Example 2]", 7.0),
    ("COc1c(-c2nsc3ccc(-n4c(=O)cc(C(F)(F)F)n(C)c4=O)cc23)ccc(C)c1C [Example 267]", 7.0),
]

Can you give me herbicidal effect rating, ORYSAT (rice tolerance) for all of these, one by one?
1. Cc1nsc2ccc(-n3c(=O)cc(C(F)(F)F)n(C)c3=O)cc12 [Example 6]
2. CCOc1cccc(-c2nsc3ccc(-n4c(=O)cc(C(F)(F)F)n(C)c4=O)cc23)c1 [Example 327]
3. Cn1c(C(F)(F)F)cc(=O)n(-c2ccc3snc(C(=O)C(C)(C)C)c3c2)c1=O [Example 432]
4. Cn1c(C(F)(F)F)cc(=O)n(-c2ccc3snc(-c4ccccc4)c3c2)c1=O [Example 4]
5. CC(C)S(=O)(=O)NC(=O)c1nsc2ccc(-n3c(=O)cc(C(F)(F)F)n(C)c3=O)cc12 [Example 362]

Output line:
1. 9.0
2. 4.0
3. 7.0
4. 8.0
5. 6.0

Can you give me herbicidal effect rating, ORYSAT (rice tolerance) for all of these, one by one?
1. COC(=O)C(C)Oc1cc(C)c(C)cc1-c1nsc2ccc(-n3c(=O)cc(C(F)(F)F)n(C)c3=O)cc12 (stereo not shown) [Example 13]
2. COc1ccc(OC)c(-c2nsc3ccc(-n4c(=O)cc(C(F)(F)F)n(C)c4=O)cc23)c1 [Example 333]
3. COc1ccc(C)cc1-c1nsc2ccc(-n3c(=O)cc(C(F)(F)F)n(C)c3=O)cc12 [Example 1]
4. Cc1ccc(OCC(=O)OCC2(c3ccccc3)CC2)c(-c2nsc3ccc(-n4c(=O)cc(C(F)(F)F)n(C)c4=O)cc23)c1 [Example 517]

Output line:
[4.0, 6.0, 6.0, 0.0]

Can you give me herbicidal effect rating, ORYSAT (rice tolerance) for all of these, one by one?
1. COc1cc(C)ccc1-c1nsc2ccc(-n3c(=O)cc(C(F)(F)F)n(C)c3=O)cc12 [Example 7]
2. CC(C)Oc1cccc(-c2nsc3ccc(-n4c(=O)cc(C(F)(F)F)n(C)c4=O)cc23)c1 [Example 328]

Output line:
7.0
4.0

* * *

Tested on: Oryza sativa, (L.) Tebonnet
TEST DESCRIPTION: Rice tolerance to post-transplant applications under flooded paddy conditions (Example 187), ORYSAT (Rice, Tebonnet); also: meaning of each grade not given here
CONDITION NOTES: Rate 0.1250 kg/ha, rated 3-4 weeks after treatment
PROPERTY MEASURED: herbicidal effect rating ORYSAT

Solved cases below.
# COMPOUND, VALUE OBSERVED
records = [
    ("CCCCCCCCCOC(=O)COc1ccc(C)cc1-c1nsc2ccc(-n3c(=O)cc(C(F)(F)F)n(C)c3=O)cc12", 4.5),
    ("CC(Oc1ccccc1-c1nsc2ccc(-n3c(=O)cc(C(F)(F)F)n(C)c3=O)cc12)C(=O)N(C)C (stereo not shown)", 3.0),
    ("CCCS(=O)(=O)NC(=O)COc1ccc(C)cc1-c1nsc2ccc(-n3c(=O)cc(C(F)(F)F)n(C)c3=O)cc12", 6.0),
]

Lab note: next compound to report on.
Input line: Item under review: C#CC(C)OC(=O)C(C)(C)Oc1ccc(C)cc1-c1nsc2ccc(-n3c(=O)cc(C(F)(F)F)n(C)c3=O)cc12 (stereo not shown) . Reported herbicidal effect rating ORYSAT?
Output line: 3.0

Provenance of the data: patent EP0908457B1
